These entries and their values trace back to ChEMBL document CHEMBL3507680.

# assay-summary: Human HepG2 cell viability assay in 384 well format
# Assay type: toxicity, cell-based
# Design: dose 125 nL, time 70.5 hour; concentration not given beside the values
# condition: HepG2 cells, read-out: Inhibition
readout-type: cytotoxicity at 70.5 h (%)
Numbers only here, please. The scale is %.

cytotoxicity at 70.5 h for CC(Cn1ccnc1)NC(=O)N(C)Cc1ccco1 (centres undefined) ?
-2.84

Next entry: CN(C)c1ncccc1CNC(=O)N1CCCC1CN1CCCCC1 (centres undefined)
-32

Next entry: CC(C)NC(=O)N1CCOC2(CCCNC2)C1 (centres undefined)
4.28

Next entry: CNC(=O)CNCc1c[nH]nc1-c1cc2ccccc2o1
-1.2

Next entry: Cc1cc(-c2c(C)c(-c3cnn(C)c3)nc(N)c2C#N)oc1C
37.4

Next entry: CC(NC(=O)Cc1cccs1)c1nnc2n1CCC2 (centres undefined)
-7.18

Next entry: Cn1nc(COc2cccnc2)c2c1CCN(CC1CC1)C2
-8.94

Next entry: CC1(C)CC(N2Cc3nc(N4CCOCC4)ncc3C2=O)CC(C)(C)N1
13.3

Next entry: Cc1cc(C)n(C2CCCN(C(=O)C3=NN(C)C(=O)CC3)C2)n1 (centres undefined)
-9.81

Next entry: CN(C)CC1CN(Cc2cccc(C#N)c2)Cc2nccn2C1 (centres undefined)
-6.48

Next entry: Cc1ccc(C2CSCCN2C(=O)c2ccncc2)cc1 (centres undefined)
0.0663

Next entry: CC(=O)N[C@@H]1CN(C(=O)c2cc3ccccc3[nH]2)C[C@H]1c1ccc(C)o1
-9.58

Next entry: FC(F)(F)Cn1ccnc1CNCC1CCCN1c1cccnn1 (centres undefined)
-13.2

Next entry: CC(C)n1cnnc1CN(C)C(=O)CCn1cnc2ccccc2c1=O
-17.5

Next entry: O=C(O)CC[C@@H]1CN(c2ccncc2)CC[C@@H]1N1CCOCC1
-3.32

Next entry: CCn1c(NCc2ccc(OC)cc2)nc2c(C)nn(C)c2c1=O
-6.73

Next entry: CN1CCCC1CCn1ccnc1-c1nc2ccccc2[nH]1 (centres undefined)
-0.748

Next entry: COCCC(=O)N1CCCC1c1csc(Nc2ccccn2)n1 (centres undefined)
21.7

Next entry: Cc1ccc(CN2CC3(CCN(C(=O)C4CC4)CC3)CC2C(=O)O)o1 (centres undefined)
-2.54

Next entry: CC(=O)N1CCc2c(nc(N(C)C)nc2N(C)CCO)C1
-2.49

Next entry: COc1cc(C)c(CN2CCc3nc4ccsc4c(=O)n3CC2)cc1C
0.311

Next entry: O=C(CS(=O)(=O)Cc1cc(Cl)c2c(c1)OCO2)N1CCCC1
-0.922

Next entry: CN(C(=O)c1ccncc1)c1nnc(C2CCOC2)s1 (centres undefined)
-5.28

Next entry: CC(C)C(O)C1CCN(c2ccnc(C(=O)NCc3ccco3)c2)CC1 (centres undefined)
-14.1
